Source: the supplement of paper PMC12645437

System Name: T1, CRBN, Q96SW2;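 note: pooled lentiviral library of zinc finger degron-EGFP fusions in mCherry-positive Jurkat cells, FACS-sorted after compound exposure, with degron abundance counted by next-generation sequencing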
T1 chain: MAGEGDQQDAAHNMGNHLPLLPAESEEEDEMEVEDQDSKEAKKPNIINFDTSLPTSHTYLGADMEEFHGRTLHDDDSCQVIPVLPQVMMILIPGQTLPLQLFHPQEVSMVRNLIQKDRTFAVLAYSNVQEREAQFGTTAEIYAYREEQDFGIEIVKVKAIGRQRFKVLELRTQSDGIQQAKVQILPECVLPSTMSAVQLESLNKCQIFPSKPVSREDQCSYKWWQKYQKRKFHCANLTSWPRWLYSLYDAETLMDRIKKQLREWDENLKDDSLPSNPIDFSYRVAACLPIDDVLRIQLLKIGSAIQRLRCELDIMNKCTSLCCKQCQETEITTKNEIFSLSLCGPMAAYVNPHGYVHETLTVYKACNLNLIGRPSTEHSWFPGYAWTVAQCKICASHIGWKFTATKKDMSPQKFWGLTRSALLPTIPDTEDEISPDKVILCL
Test Details: log2 fold change of degron read counts, EGFP-low vs EGFP+ sorted cells (limma voom), compound-induced degradation; higher = more compound-induced degradation of the degron-EGFP fusion; degrons are variants of IKZF1/3 zinc finger 2; compound dose not given here
Condition Info: Jurkat; 18 h; compound: compound 33 (diphenyl IMiD analogue)
Whole data set: some 8,300 sequences, median “log2 fold change of degron read counts, EGFP-low vs EGFP+ sorted cells (limma voom), compound-induced degradation” near -1.1, cut for the highest 2% near 3.2. Shown is part of a subset that was picked to be rich in the highest values.
Measurement Name: log2 fold change of degron read counts

# count of solved cases: 5
- Item Sequence: "FTCPICGREFTQKGNLLRHIKL [46F_47T_49P_50I_52G_53R_54E_55F_67L_, Q9UKT9]"
  log2 fold change of degron read counts: -0.517
- Item Sequence: "LECEICGFGCTQKGNLLRHIKL [46L_47E_49E_50I_52G_53F_54G_55C_67L_, Q9UKT9]"
  log2 fold change of degron read counts: -1.15
- Item Sequence: "LACPICGFFCTQKGNLLRHIKL [46L_47A_49P_50I_52G_53F_54F_55C_67L_, Q9UKT9]"
  log2 fold change of degron read counts: 2.27
- Item Sequence: "FNCNQCGRWFTQKGNLLRHIKL [46F_47N_49N_50Q_52G_53R_54W_55F_67L_, Q9UKT9]"
  log2 fold change of degron read counts: -1.98
- Item Sequence: "FVCEQCGAGFTQKGNLLRHIKL [46F_47V_49E_50Q_52G_53A_54G_55F_67L_, Q9UKT9]"
  log2 fold change of degron read counts: 0.586

Provide the reported log2 fold change of degron read counts of each entry below, same order.
1. FICEICGRSFTQKGNLLRHIKL [46F_47I_49E_50I_52G_53R_54S_55F_67L_, Q9UKT9]
2. LSCPICGFFCTQKGNLLRHIKL [46L_47S_49P_50I_52G_53F_54F_55C_67L_, Q9UKT9]
3. FMCNVCGADFTQKGNLLRHIKL [46F_47M_49N_50V_52G_53A_54D_55F_67L_, Q9UKT9]
4. LGCPICGFFCTQKGNLLRHIKL [46L_47G_49P_50I_52G_53F_54F_55C_67L_, Q9UKT9]

-1.31
2.64
1.31
2.31

Give log2 fold change of degron read counts for all sequences that follow.
1. FKCPICGHGFTQKGNLLRHIKL [46F_47K_49P_50I_52G_53H_54G_55F_67L_, Q9UKT9]
2. LHCPICGFFCTQKGNLLRHIKL [46L_47H_49P_50I_52G_53F_54F_55C_67L_, Q9UKT9]
3. FTCPQCGAAFTQKGNLLRHIKL [46F_47T_49P_50Q_52G_53A_54A_55F_67L_, Q9UKT9]
4. FVCEICGHLFTQKGNLLRHIKL [46F_47V_49E_50I_52G_53H_54L_55F_67L_, Q9UKT9]
5. FVCEICGRLFTQKGNLLRHIKL [46F_47V_49E_50I_52G_53R_54L_55F_67L_, Q9UKT9]
6. FHCEICGHNFTQKGNLLRHIKL [46F_47H_49E_50I_52G_53H_54N_55F_67L_, Q9UKT9]

[-2.14, 2.79, 1.73, -2.38, -0.137, -2.88]
